- experimental.target: T1, CT45 (CT45A1, A2, A3, A5 to A10); CT45-IP peptide on HLA-A*02:01 (human)
- T1 peptide: KIFEMLEGV
- assay.details: CT45-IP-HLA-A*02 dextramer on T cells with TCR mRNA; TCR found by tetramer sorting; full-length, on cells
Record form. Attribute: dextramer-positive events. Fill in for each entry.
Provide the reading as a plain figure in %.

Reported dextramer-positive events for TCR-1 (TCR, V domains shown) Valpha: QTVTQSQPEMSVQEAETVTLSCTYDTSENNYYLFWYKQPPSRQMILVIRQEAYKQQNATENRFSVNFQKAAKSFSLKISDSQLGDTAMYFCAPLGLVAGSARQLTFGSGTQLTVLP Vbeta: GVSQDPRHKITKRGQNVTFRCDPISEHNRLYWYRQTLGQGPEFLTYFQNEAQLEKSRLLSDRFSAERPKGSFSTLEIQRTEQGDSAMYLCASSTDITSYEQYFGPGTRLTVT was 8.9

Briefly, dextramer-positive events measured for TCR-12 (TCR, V domains shown) Valpha: QLLEQSPQFLSIQEGENLTVYCNSSSVFSSLQWYRQEPGEGPVLLVTVVTGGEVKKLKRLTFQFGDARKDSSLHITAAQPGDTGLYLCAGGLSDSYDKVIFGPGTSLSVIP Vbeta: EVTQTPKHLVMGMTNKKSLKCEQHMGHRAMYWYKQKAKKPPELMFVYSYEKLSINESVPSRFSPECPNSSLLNLHLHALQPEDSALYLCASSQGVGQEYGYTFGSGTRLTVV : 20.1
